studySystem: HLA-A*0201 (human)
measurementDescription: fluorescence polarization competition, test peptide at 100 uM against the fluorescent-labeled peptide on HLA-A*0201, from Ymax
testReadout: % inhibition (%)
One number for each entry, in %.

Examples from the recorded data:
[[record]]
binder = "SGVRIVVEY [C35 peptide S21 to Y29]"
observedmeasurement = 90.8

[[record]]
binder = "SVAPPPEEV [C35 peptide S9 to V17]"
observedmeasurement = 96.9

[[record]]
binder = "ITNSRPPCV [C35 peptide I105 to V113]"
observedmeasurement = 86.4


For each listed entry, give its % inhibition.
1. TYLELASAV [C35 peptide T38 to V46]
2. FEIEINGQL [C35 peptide F65 to L73]
3. GTGAFEIEI [C35 peptide G61 to I69]

Given back:
1: 47.3; 2: 74.8; 3: 46.5

Cited source: patent US20040063907A1
